The entries below are paired with their reported IC50.
# Tested system: BTK (Homo sapiens (Human), UniProt Q06187)
# Sequence (Q06187 whole entry, looked up, species assumed): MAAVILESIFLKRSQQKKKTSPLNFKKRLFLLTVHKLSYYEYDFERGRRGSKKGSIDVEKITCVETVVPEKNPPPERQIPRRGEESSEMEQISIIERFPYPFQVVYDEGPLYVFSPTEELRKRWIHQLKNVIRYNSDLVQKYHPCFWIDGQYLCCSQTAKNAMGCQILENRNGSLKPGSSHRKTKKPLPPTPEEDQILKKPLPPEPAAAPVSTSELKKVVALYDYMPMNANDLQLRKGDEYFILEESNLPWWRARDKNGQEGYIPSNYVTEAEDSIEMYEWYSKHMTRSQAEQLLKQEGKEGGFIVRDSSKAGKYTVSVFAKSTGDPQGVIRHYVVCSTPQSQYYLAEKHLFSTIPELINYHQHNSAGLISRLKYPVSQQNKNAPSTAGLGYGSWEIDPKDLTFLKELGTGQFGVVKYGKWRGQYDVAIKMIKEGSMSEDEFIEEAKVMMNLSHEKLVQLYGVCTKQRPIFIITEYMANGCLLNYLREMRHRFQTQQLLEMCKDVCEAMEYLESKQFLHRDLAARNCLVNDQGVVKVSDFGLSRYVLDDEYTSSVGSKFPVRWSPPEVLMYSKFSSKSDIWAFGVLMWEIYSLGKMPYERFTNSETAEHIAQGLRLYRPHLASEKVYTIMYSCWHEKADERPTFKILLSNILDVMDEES
# Experiment notes: biochemical

Would you please look over these solved cases?
CC#CC(=O)N1CCC[C@H]1c1nc(-c2ccc(C(=O)Nc3cc(C(F)(F)F)ccn3)cc2)c2cncc(OCC)n12 [Compound 203] :: 100 to 1000 nM
CC#CC(=O)N1CC[C@@H](c2nc(-c3ccc(C(=O)Nc4cc(C(F)(F)F)ccn4)cc3)c3cncc(OCC)n23)C1 [Compound 196] :: 100 to 1000 nM

Give the value of IC50 reported for the following: CC#CC(=O)N1CC[C@@H](c2nc(-c3ccc(C(=O)Nc4cc(C(F)(F)F)ccn4)cc3F)c3cncc(OCC)n23)C1 [Compound 198]
10 to 100 nM

meta.source: patent US11554118B2
